# subject.of.test: ZBED4_C599 (Homo sapiens, UniProt O75132)
# Construct: endogenous in cells; host or cells: 22Rv1
# Sequence (O75132 whole entry): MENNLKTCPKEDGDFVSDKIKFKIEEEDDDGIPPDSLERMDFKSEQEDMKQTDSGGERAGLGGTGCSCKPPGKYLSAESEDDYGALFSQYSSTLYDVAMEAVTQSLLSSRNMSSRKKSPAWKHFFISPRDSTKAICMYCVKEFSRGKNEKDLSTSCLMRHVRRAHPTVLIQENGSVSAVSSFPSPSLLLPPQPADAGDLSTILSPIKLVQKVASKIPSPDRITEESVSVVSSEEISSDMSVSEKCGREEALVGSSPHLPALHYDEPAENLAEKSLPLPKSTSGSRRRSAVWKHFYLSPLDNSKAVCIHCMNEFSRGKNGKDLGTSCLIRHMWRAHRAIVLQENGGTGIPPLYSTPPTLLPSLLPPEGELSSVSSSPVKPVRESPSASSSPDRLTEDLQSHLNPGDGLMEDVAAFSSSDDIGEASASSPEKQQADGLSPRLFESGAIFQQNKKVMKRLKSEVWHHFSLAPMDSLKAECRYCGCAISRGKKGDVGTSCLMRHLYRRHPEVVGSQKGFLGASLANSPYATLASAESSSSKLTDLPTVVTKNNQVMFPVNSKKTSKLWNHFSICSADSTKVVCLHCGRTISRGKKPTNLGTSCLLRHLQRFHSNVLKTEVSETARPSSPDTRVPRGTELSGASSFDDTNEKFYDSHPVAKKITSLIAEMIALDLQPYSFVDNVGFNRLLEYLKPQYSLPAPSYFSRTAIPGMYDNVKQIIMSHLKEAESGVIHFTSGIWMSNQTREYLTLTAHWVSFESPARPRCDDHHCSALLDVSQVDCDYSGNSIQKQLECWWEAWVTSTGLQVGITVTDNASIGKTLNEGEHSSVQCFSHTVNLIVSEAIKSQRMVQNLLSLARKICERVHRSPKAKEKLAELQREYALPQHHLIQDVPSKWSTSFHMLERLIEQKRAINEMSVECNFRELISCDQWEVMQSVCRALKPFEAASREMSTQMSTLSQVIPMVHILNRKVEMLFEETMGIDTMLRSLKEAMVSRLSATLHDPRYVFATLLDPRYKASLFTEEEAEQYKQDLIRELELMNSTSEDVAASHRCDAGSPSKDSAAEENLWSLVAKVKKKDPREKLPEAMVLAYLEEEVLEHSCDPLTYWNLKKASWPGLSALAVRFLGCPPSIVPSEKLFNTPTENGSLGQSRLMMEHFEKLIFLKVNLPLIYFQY
# experiment.notes: IA-DTB cysteine engagement
# Assay type: binding
# experimental.context: 22Rv1 cells, 20 μM probe, 1 h, relative to DMSO
Reported % engagement ZBED4_C599 values are given for each entry in this list.
Just the number please, in %, no unit attached.

Some compounds with recorded % engagement ZBED4_C599:
>  <compound>
C=CC(=O)N1C[C@H](c2ccc(Br)cc2)[C@H]1C(=O)Nc1cccc2cccnc12 [MY-3B]

>  <subject.of.test>
ZBED4_C599 (Homo sapiens, UniProt O75132)

>  <% engagement ZBED4_C599 [%]>
83.5

$$$$
>  <compound>
C=CC(=O)N1C[C@@H](c2ccc(Br)cc2)[C@H]1C(=O)Nc1cccc2cccnc12 [MY-1A]

>  <subject.of.test>
ZBED4_C599 (Homo sapiens, UniProt O75132)

>  <% engagement ZBED4_C599 [%]>
16

$$$$
>  <compound>
C=CC(=O)N1C[C@H](c2ccc(Br)cc2)[C@H]1C(=O)Nc1cccc2cccnc12 [MY-3A]

>  <subject.of.test>
ZBED4_C599 (Homo sapiens, UniProt O75132)

>  <% engagement ZBED4_C599 [%]>
21

$$$$

Now examine the next entry.
Value of measured % engagement ZBED4_C599 for the entry C=CC(=O)N1C[C@H](c2ccc(Br)cc2)[C@@H]1C(=O)Nc1cccc2cccnc12 [MY-1B] : 39
